TARGET: NHE3 (Homo sapiens, UniProt P48764)
Construct: expressed in transfected cells
Sequence (P48764 26-834): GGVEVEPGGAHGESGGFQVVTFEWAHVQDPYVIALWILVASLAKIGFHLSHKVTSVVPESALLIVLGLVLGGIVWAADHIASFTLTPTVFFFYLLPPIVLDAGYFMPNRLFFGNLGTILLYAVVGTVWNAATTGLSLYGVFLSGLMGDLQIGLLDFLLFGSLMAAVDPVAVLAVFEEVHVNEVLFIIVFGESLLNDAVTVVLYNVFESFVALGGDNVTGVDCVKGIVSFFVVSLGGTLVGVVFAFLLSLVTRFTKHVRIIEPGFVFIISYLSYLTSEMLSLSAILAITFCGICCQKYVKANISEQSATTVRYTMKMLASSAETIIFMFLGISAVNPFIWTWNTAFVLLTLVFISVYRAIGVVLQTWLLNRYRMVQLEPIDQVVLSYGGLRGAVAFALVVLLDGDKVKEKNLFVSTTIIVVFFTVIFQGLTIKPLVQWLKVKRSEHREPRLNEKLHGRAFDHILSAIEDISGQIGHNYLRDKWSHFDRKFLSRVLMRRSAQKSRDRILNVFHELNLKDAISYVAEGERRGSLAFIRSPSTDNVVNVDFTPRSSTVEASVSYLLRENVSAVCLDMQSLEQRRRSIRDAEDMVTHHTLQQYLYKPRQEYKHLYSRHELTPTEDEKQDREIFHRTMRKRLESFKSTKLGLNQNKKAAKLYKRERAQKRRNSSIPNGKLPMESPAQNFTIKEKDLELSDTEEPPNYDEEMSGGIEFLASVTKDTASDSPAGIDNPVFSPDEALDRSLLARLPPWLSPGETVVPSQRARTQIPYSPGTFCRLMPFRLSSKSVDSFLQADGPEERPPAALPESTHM
Sequence (Q99653 2-195 partner limits assumed): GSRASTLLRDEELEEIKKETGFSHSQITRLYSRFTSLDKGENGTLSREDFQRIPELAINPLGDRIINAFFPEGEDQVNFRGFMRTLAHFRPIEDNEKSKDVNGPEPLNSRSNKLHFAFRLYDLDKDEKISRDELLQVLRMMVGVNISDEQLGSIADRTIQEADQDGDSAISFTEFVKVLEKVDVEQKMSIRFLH
EXPERIMENTAL PROTOCOL: Cell-based assay of NHE-3 activity (pre-incubation inhibition), human
CONDITION PARAMETERS: human Preincubation, 0-30 μM test compound

MOLECULE	TARGET	pIC50
Cc1cc(Cl)cc2c1C[C@H](N1CCNCC1)[C@H]2Oc1ccc(S(=O)(=O)NCCOCCOCCNC(=O)NCCCCNC(=O)NCCOCCOCCNS(=O)(=O)c2ccc(O[C@H]3c4cc(Cl)cc(C)c4C[C@@H]3N3CCNCC3)c(F)c2)cc1F [Example 36]	NHE3 (Homo sapiens, UniProt P48764)	C (NHE3 pIC50 > 7)
N#Cc1cc(Cl)cc2c1C[C@H](N1CCNCC1)[C@H]2Oc1ccc(S(=O)(=O)N[C@@H]2CCN(C(=O)CCCNC(=O)NCCCCNC(=O)NCCCC(=O)N3CC[C@@H](NS(=O)(=O)c4ccc(O[C@H]5c6cc(Cl)cc(C#N)c6C[C@@H]5N5CCNCC5)cc4)C3)C2)cc1 [Example 142]	NHE3 (Homo sapiens, UniProt P48764)	C (NHE3 pIC50 > 7)
Cc1cc(S(=O)(=O)NCCOCCOCCNC(=O)NCCCCNC(=O)NCCOCCOCCNS(=O)(=O)c2ccc(O[C@H]3c4cc(Cl)cc(C#N)c4C[C@@H]3N(C)C)c(C)c2)ccc1O[C@H]1c2cc(Cl)cc(C#N)c2C[C@@H]1N(C)C [Example 18]	NHE3 (Homo sapiens, UniProt P48764)	C (NHE3 pIC50 > 7)
